B1: library; numbered along this chain (parent)
chain: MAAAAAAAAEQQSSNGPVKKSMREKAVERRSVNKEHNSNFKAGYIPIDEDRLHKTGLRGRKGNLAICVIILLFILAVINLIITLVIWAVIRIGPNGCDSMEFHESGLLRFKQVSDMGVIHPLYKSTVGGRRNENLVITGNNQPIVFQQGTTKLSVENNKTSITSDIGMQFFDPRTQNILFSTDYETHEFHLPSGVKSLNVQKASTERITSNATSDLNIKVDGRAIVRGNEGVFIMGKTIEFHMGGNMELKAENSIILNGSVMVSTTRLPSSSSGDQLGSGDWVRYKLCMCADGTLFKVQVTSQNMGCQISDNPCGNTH

- Variants of: B1
- assay-remarks: SGCB cell-surface expression functional score (HA stain, bin4 vs bin1, normalised to synonymous) (log10 ratio); higher = more cell-surface SGCB (functional)
Decision: SGCB cell-surface expression functional score (log10) >= -0.1 yields 1, all other cases yield -1.

input: Hello, I need to know if `F180G` has measured SGCB cell-surface expression functional score (log10) not below -0.1. Thanks!
output: -1

input: Then `S114V` ?
output: -1

input: For `G315V` then?
output: 1

input: Similarly, `L80V` ?
output: 1

input: // repeat for `S270V` and report
output: 1

input: Also need `Q148Y` , thanks.
output: -1

input: Now consider `I81E` .
output: 1

input: Here is the next variant: `R267F`
output: 1

input: One more variant: `P17M`
output: 1

input: # iterate: `R227K`
output: 1

input: And for `K41F` ?
output: -1

input: Queued: `S279N`
output: 1

input: Entry `K152T` please
output: 1

input: Repeat for the following variant: `S272Y`
output: -1

input: Cool, now `S125E`
output: 1

input: Another variant to check: `T294Q`
output: 1

input: Same question, `E156R` this time
output: -1

input: What do you get for `L153P` ?
output: -1

input: Ok, now `R131A`
output: 1

input: Record: `T209S`
output: 1

input: Now consider `I69P` and answer again.
output: 1

input: Entry to check: `K297L`
output: -1

input: Similarly, `M235I` ?
output: 1

input: Queued: `V300F`
output: -1

input: Next record, please: `L191N`
output: -1

input: Also `R58T` , if possible.
output: 1

input: Same for `N134A`
output: 1

input: What about this variant? `E133L`
output: -1

input: Next record, please: `M262F`
output: 1

input: And for `T126N` ?
output: -1

input: Likewise for `H242P` ?
output: -1

input: Consider next the variant `I92C` in the same way.
output: -1

input: Please give the result for `N246C` too.
output: 1

input: What would you report for `A224C` ?
output: 1

input: Next up: `K54P`
output: 1

input: What do you have for `K219A` ?
output: 1

input: Likewise for `R29V` ?
output: -1

input: How about `V85M` ?
output: 1

input: Okay, and `G16W` ?
output: 1

input: Likewise for `L72D` ?
output: -1

input: Record: `K61M`
output: 1
